I'd appreciate it if you could supply Total Cell Count values for the items below.
- Tested on: Fibroblast
- assay-explanation: Multiplex assay against human fibroblast
- Assay type: toxicity, cell-based
- condition-description: 12 h, 1 µM, compound concentration 1 uM, replicate 2

Take a look at these entries with their results.
> print(dat)
                                        mol  reported.measurement
1  C=C1/C(=C\C=C2/CCC[C@]3(C)[C@@H]([C@H](C)/C=C/[C@H](C)C(C)C)CC[C@@H]23)C[C@@H](O)C[C@@H]1O                   111
2  CNc1cc(Oc2cc(C(=O)Nc3cc(N4CCN(C)CC4)cc(C(F)(F)F)c3)ccc2C)ncn1                    56
3  CCOc1cc2ncc(C#N)c(Nc3ccc(OCc4ccccn4)c(Cl)c3)c2cc1NC(=O)/C=C/CN(C)C                    64

# ---- query molecule ----
Q. Give a short answer stating reported Total Cell Count for O=C(Nc1cccnn1)N1CCC(=Cc2cccc(Oc3ccc(C(F)(F)F)cn3)c2)CC1 .
A. 83

Values were extracted from ChEMBL document CHEMBL4689842.
